# Assay Target: human soluble ENPP1 (Homo sapiens)
# Construct: 20 ng of human soluble ENPP1
# Sequence (P22413 103-925 limits assumed): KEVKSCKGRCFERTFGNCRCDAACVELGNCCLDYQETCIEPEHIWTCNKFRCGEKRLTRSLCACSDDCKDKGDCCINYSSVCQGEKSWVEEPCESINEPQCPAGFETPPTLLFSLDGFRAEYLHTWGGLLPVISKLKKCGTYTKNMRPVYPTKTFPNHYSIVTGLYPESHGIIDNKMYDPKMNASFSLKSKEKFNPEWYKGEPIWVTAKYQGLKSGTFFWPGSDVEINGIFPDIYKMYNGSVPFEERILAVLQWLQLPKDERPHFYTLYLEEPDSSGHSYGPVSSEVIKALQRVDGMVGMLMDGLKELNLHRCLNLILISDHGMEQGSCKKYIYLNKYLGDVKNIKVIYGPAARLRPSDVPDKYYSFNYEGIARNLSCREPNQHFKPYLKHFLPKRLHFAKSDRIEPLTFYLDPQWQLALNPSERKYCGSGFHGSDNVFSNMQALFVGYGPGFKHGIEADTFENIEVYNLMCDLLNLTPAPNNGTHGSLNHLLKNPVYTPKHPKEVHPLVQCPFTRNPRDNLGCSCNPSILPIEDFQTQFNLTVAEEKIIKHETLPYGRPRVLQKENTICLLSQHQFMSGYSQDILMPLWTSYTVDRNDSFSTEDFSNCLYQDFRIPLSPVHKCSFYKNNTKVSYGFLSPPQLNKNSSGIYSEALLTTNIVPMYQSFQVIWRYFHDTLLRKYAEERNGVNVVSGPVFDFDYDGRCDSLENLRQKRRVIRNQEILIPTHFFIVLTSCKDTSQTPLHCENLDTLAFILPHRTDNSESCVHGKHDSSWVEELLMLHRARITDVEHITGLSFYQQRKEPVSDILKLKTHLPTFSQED
# Experiment Summary: ENPP1 activity assay using p-Nitrophenyl-5′-TMP as a substrate
# Assay type: biochemical
Recorded Endpoint: IC50 (nM)

COc1ccc2c(ncc3nc(OC)n(Cc4ccc(S(N)(=O)=O)c(F)c4)c32)n1
1.7
COc1cc2ncc3nnn(Cc4ccc(S(N)(=O)=O)cc4)c3c2cc1OC
4.3
COc1cnc2c(c1)ncc1ncn(Cc3ccc(S(N)(=O)=O)cc3)c12
1.9
COc1ccc2c(ncc3ccn(Cc4ccc(S(N)(=O)=O)cc4)c32)n1
8.1
COc1ccc2ncc3ncn(Cc4ccc(S(N)(=O)=O)cc4)c3c2c1
3.1
COCCc1nc2c(C)nc3nc(OC)ccc3c2n1Cc1cc(F)c(S(N)(=O)=O)cc1F
3.7

(P) COc1ccc2c(ncc3cnn(Cc4ccc(S(N)(=O)=O)c(F)c4)c32)n1 [Compound 122a]
(Q) COc1cc2ncc3nnc(-c4ccc(CNS(N)(=O)=O)cc4)n3c2cc1OC
Of P and Q , whose reported IC50 is the larger number? Return value: the label identifying the chosen record.
Q

(A) COc1ccc2c(n1)nc(C)c1nc(C)n(Cc3cc(F)c(S(N)(=O)=O)cc3F)c12
(B) COc1cc2ncc3c(c2cc1OC)n(Cc1ccc(S(N)(=O)=O)cc1)c(=O)n3C
Which shows the larger IC50 value: A or B ? Could you answer with the label of the item you picked?
B
